- System: KM-20L2
- Method Summary: NCI tumour cell line growth inhibition, 48 h
Calls of active or inactive are those of the source. Cut-off read from the data, not from the text of the source: active = GI50 up to about 1.1 µM and inactive = higher.
Documented GI50 across a set of molecules

Molecule | GI50
COC(=O)/C(=N\O)C(C(=O)C=C(C)C)C(=O)C(=O)Nc1ccccc1C (stereo unspecified) | > 100 µM (inactive)
O=C(c1ccccc1)c1ccc2cccc(OC3OC(CO)C(O)C(O)C3O)c2n1 (stereo unspecified) | > 100 µM (inactive)
COc1ccc2ccnc(Cc3ccc(OCc4ccccc4)c(OC)c3)c2c1 | 34.5 µM (inactive)
O=C(O)CN(c1ccc(F)cc1)S(=O)(=O)c1ccccc1 | > 100 µM (inactive)
O=C(O)CNS(=O)(=O)c1ccc(NC(=O)c2ccc([N+](=O)[O-])cc2)cc1 | > 100 µM (inactive)
CC(=O)N/C(=C\c1ccccc1/C=C(\NC(C)=O)c1nc2cc(C)c(C)cc2[nH]1)c1nc2cc(C)c(C)cc2[nH]1 | 29.4 µM (inactive)

====

- Test system: TK-10
- Method Summary: NCI tumour cell line growth inhibition, 48 h
Calls of active or inactive are those of the source. Cut-off read from the data, not from the text of the source: active = GI50 up to about 1.1 µM and inactive = higher. Non-standard residues stand in square brackets, D forms with d. Residues, ends and D or L forms follow the SMILES beside them. ξ: configuration not given here. *: point of attachment. NMeF = CN[C@@H](Cc1ccccc1)C(=O)O; NMeV = CN[C@H](C(=O)O)C(C)C; ξNMeV = CNC(C(=O)O)C(C)C; Boc = CC(C)(C)OC(=O)*; OBn = c1ccc(CO*)cc1
Possible outcomes: active, inactive

Compound | Class Label
CCOC(=O)CCc1cccc2c1oc1c(CCNC(=O)OCC3c4ccccc4-c4ccccc43)cccc12 | inactive
CCN(CC)C(=O)Cc1c(C(=O)N(CC)CC)c(=O)nc2sccn12 | inactive
CC(C)(C)OC(=O)N(CCCN)CCCCN(CCCN)C(=O)OC(C)(C)C | inactive
O=C(CN1CCOCC1)Nc1ccc2c(c1)C1Oc3ccccc3CC1CO2 (stereo unspecified) | inactive
CC(C)CCCC(=O)CCCCCCC(=O)CCN(O)C(=O)C(N)CO (stereo unspecified) | inactive
Clc1cccc(Cl)c1C1ON=C(c2ccccc2)N1C12CC3CC(CC(C3)C1)C2 (stereo unspecified) | inactive
CSC1=N/C(=C\c2ccc(C)cc2)C(=O)N1CN1CCOCC1 | inactive
Cc1c(F)c(N)c2c(=O)cc(-c3ccc(NC(=O)[C@@H](N)CCCCN)c(F)c3)oc2c1F | active
Cc1cc(=O)nc(S(=O)(=O)NC(=O)Nc2cccc(Cl)c2)[nH]1 | inactive
CC(=O)OCC1OC(c2c(OC(C)=O)cc(C)c3c(=O)cc(/C(C(C)=O)=C(\C)O)oc23)C(OC(C)=O)C(OC(C)=O)C1OC(C)=O (stereo unspecified) | inactive
COC(=O)C1(Cc2ccc3c(c2)CCC3)Cc2ccccc2C1O (stereo unspecified) | inactive
CSc1ccc2c(cc1=O)[C@@H](NC(=O)c1ccc(Cl)cc1)CCc1cc(O)c(O)c(O)c1-2 | inactive
CCOc1ccc(Nc2nc(C)c(C(=O)/C=C/c3ccc(Cl)cc3Cl)s2)cc1 | inactive
CC1=C(Cl)C[C@@H](/C(C)=C\Cl)O[C@@]1(O)C(Br)Br | inactive
CC(=O)O[C@H]1CC[C@H]2[C@@H]3CCc4cc(O)c(I)cc4[C@H]3CC[C@]12C | inactive
COC[C@@H]1Cc2cc(OC)c3c(c2[C@H](c2ccc(OC)c(OC)c2)[C@H]1COC)OCO3 [HYPOPHYLLANTHIN] | inactive
O=[N+]([O-])c1ccc(C2SCc3nc4ccccc4n32)cc1 (stereo unspecified) | inactive
O=C(OCCN=c1c2ccccc2ccc2ccccc12)c1ccccc1 | inactive
C/C(CC(=O)Nc1cc(Cl)c(Cl)cc1Cl)=N\NS(=O)(=O)c1ccc(C)cc1 | inactive
CC(C)(C)OC(=O)N1CCC[C@H]1CSC[C@@H]1CCCN1C(=O)OC(C)(C)C | inactive
Cn1c2c(c3ccccc31)CCN(CCN1CCN(c3cccc(Cl)c3)CC1)C2=O | inactive
CC(C)N(C(=O)C12C3C4C1C1C4(C#N)C3C12C#N)C(C)C (stereo unspecified) | inactive
CC(=O)Nc1ccc(C(=O)NN2C(=O)CSC2c2ccccc2)cc1 (stereo unspecified) | inactive
COC(=O)/C=C/c1cc2c(cc1-c1c(C(=O)O)cc(OC)c(OC)c1OC)OCO2 | inactive
CCCCOP(=O)(OCCCC)/C(C#N)=C/c1ccc(C)o1 | inactive
Nc1cccc(CCN2CCN(CCCc3ccccc3)CC2)c1 | inactive
O=C(C(=O)n1ccc2ccccc21)n1ccc2ccccc21 | inactive
C[C@]12Cc3conc3C(O)=C1CC[C@@H]1C2CC[C@@]2(C)C1CC[C@]2(C)O (stereo partly specified) | inactive
C=CCC1C(=O)CC2(C)C(CC=C)C(=O)CC12C (stereo unspecified) | inactive
COC(=O)[C@H](Cc1ccccc1)NC(=O)N(CCC#N)CCN(C(=O)N[C@@H](Cc1ccccc1)C(=O)OC)c1ccccc1 | inactive
O=C(/C=C/c1ccccc1)c1cc(Br)ccc1O | inactive
c1ccc2c(NCCCCCCNc3cccc4ccccc34)cccc2c1 | inactive
CCn1c2ccccc2c2ccc3c(c21)C(=O)C=CC3=O | inactive
CN1C(=O)CN2C(Cl)(Cl)C2(c2ccccc2F)c2cc([N+](=O)[O-])ccc21 (stereo unspecified) | inactive
CC(=O)NC1C(OCc2ccccc2)OC(CO)C(O)C1OC(C)C(=O)NC(C(=O)NC(CCC(=O)Nc1ccc2c(c1)CN1C(=O)c3ccccc3C1=N2)C(N)=O)C(C)C (stereo unspecified) | inactive
CC(C)C(C(=O)N(C)[C@H](C(=O)N1CCC[C@H]1C(=O)N(C)[C@@H](Cc1ccccc1)C(=O)OCc1ccccc1)C(C)C)N(C)C(=O)[C@@H](NC(=O)OC(C)(C)C)C(C)C (stereo partly specified) (Boc-V[ξNMeV][NMeV]P[NMeF]-OBn) | inactive
